Task for the reader: assign each of the following compounds its reported CC50.
Experiment: in vitro
Settings: African green monkey
Structures can show the parent of a compound that is named as a salt.
Kindly write the number and append the unit.

Observe how each entry below is paired with its result.
- CNCCCN1c2ccccc2CCc2ccccc21 [Desipramine hydrochloride]: 5.01 µM
- COC(=O)[C@H]1[C@H]2C[C@@H]3c4[nH]c5cc(OC)ccc5c4CCN3C[C@H]2C[C@@H](OC(=O)c2cc(OC)c(OC)c(OC)c2)[C@@H]1OC: 19.9 µM
- CN1CCCCC1CCN1c2ccccc2Sc2ccc([S+](C)[O-])cc21 (stereo not shown): 15.8 µM

Measured CC50, `CC1(C)CC(=O)c2c(C(F)(F)F)nn(-c3ccc(C(N)=O)c(N[C@H]4CC[C@H](OC(=O)CN)CC4)c3)c2C1` : 0.56 µM
